For each entry below, report its inhibition value.
Assay: VP16 transactivation reporter inhibitors, counter-screen for LRH-1 inverse agonist project, cell-based, luminescence, high throughput (AID 651615)
Conditions: Gal4-VP16 luciferase reporter cells, at 3.6 µM, stronger effect = higher value
Response body: numeric value in %, unit text excluded.

Query: I would be grateful if you could share the reported inhibition for COC(=O)c1ccccc1-c1c2ccc(=N)cc-2oc2cc(N)ccc12 .
Response: 88

Query: Subsequent entry: CCCCC(=O)NC(c1ccccc1)c1ccc2cccnc2c1O (stereo unspecified)
Response: 73

Query: // same read-out, input: CC(=O)/C(=N/Nc1ccccc1[N+](=O)[O-])N1CCCc2ccccc21
Response: 22.7

Query: Repeat with O=c1c2ccc(Cl)cc2nc(-c2cccc(C(F)(F)F)c2)n1O
Response: 46.2

Query: Item: Cc1ccc(SCC(=O)Nc2ccc(N3CCOCC3)cc2)c(C)c1
Response: -1.3

Query: Try this compound next: CCCOC(c1ccccc1)(c1ccc(C(F)(F)F)cc1)C(Oc1nc(C)cc(C)n1)C(=O)O (stereo unspecified)
Response: 75.5

Query: How about c1cc(CNc2ccc3c(c2)OCCO3)ccn1 ?
Response: -8.35

Query: // query: CCNc1nc(-c2sc(NC(=O)C(C)(C)C)nc2C)c(-n2cc(-c3ccccc3)nn2)s1
Response: 35.7

Query: How about this compound: COc1ccc(C(=O)C2CCCN(Cc3cccn3-c3ccc(Cl)cn3)C2)c(OC)c1 (stereo unspecified)
Response: 41.2

Query: Input CC(=O)c1ccc(NC(=S)Nc2cccc3cnccc23)cc1
Response: 7.24

Query: And for CC(=O)N1CCN(c2ccccc2NC(=O)c2cc3ccccc3o2)CC1 ?
Response: 2.75

---

Test: CNGC cAMP sensor activity inhibitors, counter-screen for NPY-Y2 potentiator project, cell-based, HEK293-CNG parental, membrane potential fluorescence (AID 1703);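 also: 0% = DMSO with isoproterenol and 100% = DMSO without isoproterenol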
Details: isoproterenol cAMP, at 3.6 µM
The other results are listed elsewhere or left out. Active and inactive are the calls of the source.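 How the source made its calls: active means inhibition above the control-well mean plus 3 SD of those wells (cut at about 22% in these data); inactive means the rest.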
Your answer must be one of the following: Y (active), N (inactive)

Query: Recorded call for O=C(CC(O)(C(F)(F)F)C(F)(F)F)Nc1ccc(Cl)c(Cl)c1 ?
Response: N

Query: Record: Oc1c(Cl)cc(Cl)c(Cl)c1Cc1c(O)c(Cl)cc(Cl)c1Cl
Response: N

Query: Same thing, different compound: O=C(NCc1ccccc1)c1ccc(S(=O)(=O)Nc2cccc(C(F)(F)F)c2)cc1
Response: N

Query: # repeat for COc1cc(NC(=O)c2ccccc2NS(=O)(=O)c2ccc(Cl)s2)cc(OC)c1
Response: N

Query: Also need CC(Nc1ccccc1)c1cccnc1 (centres undefined) , thanks.
Response: N

Query: Same read-out for COc1ccc2nc(NC(=O)NC3CCCCC3)sc2c1 ?
Response: Y

Query: // next record CN(C)S(=O)(=O)c1ccc(NC(=O)COC(=O)c2n[nH]c3ccccc23)cc1
Response: N

Query: Note, next up: O=C(NC(Nc1nc2ccc([N+](=O)[O-])cc2s1)(C(F)(F)F)C(F)(F)F)c1ccccc1
Response: N

Query: And what about the compound CC(=O)c1ccc2c(c1)OCCOCCOc1ccc(C(C)=O)cc1OCCOCCO2 ?
Response: Y

---

Tested on: transactivating tegument protein VP16 (Human herpesvirus 1), Gal4-VP16 luciferase reporter
Test: VP16 transactivation inhibitors, counter-screen for SRC3 inhibitor project, cell-based, luminescence, high throughput (AID 588794)
Settings: mammalian cells, VP16-driven luciferase reporter luminescence; at 3.6 µM; stronger effect = higher value
Label YES when inhibition is at or above 30%; anything below gets NO.

Query: Dear colleague, could you confirm whether Cc1ccc(S(=O)(=O)NCC(=O)N(c2ccccc2)C(C(=O)NCc2ccccc2)c2ccco2)cc1 (stereo unspecified) has inhibition at or above 30%?
Response: NO

Query: Item: O=C(N/N=C/c1cc(Cl)ccc1O)c1cccnc1
Response: YES

Query: Now consider OCC1OC(n2cnc3c(NCc4ccco4)ncnc32)C(O)C1O (stereo unspecified) .
Response: YES

Query: Subsequent entry: CCN(CC)c1ccc2cc(NC(=O)CCC(=O)O)c(=O)oc2c1
Response: YES

Query: Please do the same for Cc1ccc(-c2n[nH]c(=S)n2/N=C/c2ccncc2)cc1 as well.
Response: NO

Query: Same read-out for CC1CCCCC1NC(=O)Cn1cnc2ccccc2c1=O (stereo unspecified) ?
Response: NO

Query: Try the compound Cn1c(=N)n(CC(=O)c2ccc(Cl)c(Cl)c2)c2ccccc21
Response: NO

Query: Let us now turn to O=C(CCN1CCOCC1)N/N=C/c1cc(Br)cc(Br)c1O
Response: NO

Query: Next: COc1cc(OC)c2nc(C)c3c(c2c1)N(c1ccc(O)cc1)CC3
Response: YES

Query: Next entry: CC(C)CC(=O)/C(=C\c1ccc(Cl)cc1Cl)n1cncn1
Response: YES
